# Measurement protocol: AT1001-045 study: plasma migalastat bioavailability of 150 mg migalastat HCl capsule with caffeine and sweetener beverages relative to water
# Assay type: in vivo, human (healthy subjects)
# Test context: both sexes, human, plasma, po, 150 mg, single oral 150 mg migalastat HCl capsule, fasted; with Caffeine + Sucrose drink; read-out: tmax Median
Property name: Tmax (h)
Kindly answer with a numeric value in h, unit omitted.

Which Tmax reading was recorded for the compound `OC[C@H]1NC[C@H](O)[C@@H](O)[C@H]1O` ?
3

----------
# Measurement protocol: AT1001-045 study: plasma migalastat bioavailability of 150 mg migalastat HCl capsule with caffeine and sweetener beverages relative to water
# Type: in vivo, human (healthy subjects)
# Test context: both sexes, human, plasma, po, 150 mg, single oral 150 mg migalastat HCl capsule, fasted; with Sucrose drink; read-out: AUC0-∞ GeoMean
Property name: AUC(0-inf) (ng·h/mL)
Kindly answer with a numeric value in ng·h/mL, unit omitted.

Query (molecule): `OC[C@H]1NC[C@H](O)[C@@H](O)[C@H]1O` ; field requested: AUC(0-inf)
8030

----------
# Measurement protocol: AT1001-045 study: plasma migalastat bioavailability of 150 mg migalastat HCl capsule with caffeine and sweetener beverages relative to water
# Type: in vivo, human (healthy subjects)
# Test context: both sexes, human, plasma, po, 150 mg, single oral 150 mg migalastat HCl capsule, fasted; with Caffeine beverage; read-out: tmax Median
Property name: Tmax (h)
// note: answer is a bare numeric in h

Which Tmax is listed for OC[C@H]1NC[C@H](O)[C@@H](O)[C@H]1O [migalastat] ?
3

----------
# Measurement protocol: AT1001-045 study: plasma migalastat bioavailability of 150 mg migalastat HCl capsule with caffeine and sweetener beverages relative to water
# Format: in vivo, human (healthy subjects)
# Test context: both sexes, human, plasma, po, 150 mg, single oral 150 mg migalastat HCl capsule, fasted; with Aspartame drink; read-out: tmax Median
Property name: Tmax (h)
Just the number in h, nothing appended.

Could you tell me which Tmax is on file for `OC[C@H]1NC[C@H](O)[C@@H](O)[C@H]1O` ?
4

----------
# Measurement protocol: AT1001-045 study: plasma migalastat bioavailability of 150 mg migalastat HCl capsule with caffeine and sweetener beverages relative to water
# Format: in vivo, human (healthy subjects)
# Test context: both sexes, human, plasma, po, 150 mg, single oral 150 mg migalastat HCl capsule, fasted; with Caffeine + Sucrose drink; read-out: AUC0-∞ GeoMean
Property name: AUC(0-inf) (ng·h/mL)
// return numeric value only (unit: ng·h/mL, not printed)

Given the molecule `OC[C@H]1NC[C@H](O)[C@@H](O)[C@H]1O` , what is its reported AUC(0-inf)?
4270

----------
# Measurement protocol: AT1001-045 study: plasma migalastat bioavailability of 150 mg migalastat HCl capsule with caffeine and sweetener beverages relative to water
# Format: in vivo, human (healthy subjects)
# Test context: both sexes, human, plasma, po, 150 mg, single oral 150 mg migalastat HCl capsule, fasted; with Aspartame drink; read-out: AUC0-t GeoMean
Property name: AUC(0-t) (ng·h/mL)
Please state the figure in ng·h/mL; there is no need to write the unit.

What value of AUC(0-t) has been reported for the following molecule? OC[C@H]1NC[C@H](O)[C@@H](O)[C@H]1O [migalastat]
9080

----------
# Measurement protocol: AT1001-045 study: plasma migalastat bioavailability of 150 mg migalastat HCl capsule with caffeine and sweetener beverages relative to water
# Assay type: in vivo, human (healthy subjects)
# Test context: both sexes, human, plasma, po, 150 mg, single oral 150 mg migalastat HCl capsule, fasted; with Sucrose drink; read-out: tmax Median
Property name: Tmax (h)
Respond numerically; units are h and should not be typed.

Recorded Tmax for `OC[C@H]1NC[C@H](O)[C@@H](O)[C@H]1O` , please?
3

----------
# Measurement protocol: AT1001-045 study: plasma migalastat bioavailability of 150 mg migalastat HCl capsule with caffeine and sweetener beverages relative to water
# Format: in vivo, human (healthy subjects)
# Test context: both sexes, human, plasma, po, 150 mg, single oral 150 mg migalastat HCl capsule, fasted; with Acesulfame K drink; read-out: AUC0-t GeoMean
# Description: The example describes the AT1001-045 study, which was an open-label study of the bioavailability, safety and tolerability of migalastat in combination with caffeine and sweeteners. […]
Property name: AUC(0-t)
Kindly write the number and append the unit.

Which AUC(0-t) reading was recorded for the compound OC[C@H]1NC[C@H](O)[C@@H](O)[C@H]1O [migalastat] ?
8120 ng·h/mL

----------
# Measurement protocol: AT1001-045 study: plasma migalastat bioavailability of 150 mg migalastat HCl capsule with caffeine and sweetener beverages relative to water
# Format: in vivo, human (healthy subjects)
# Test context: both sexes, human, plasma, po, 150 mg, single oral 150 mg migalastat HCl capsule, fasted; with Caffeine + Sucrose drink; read-out: AUC0-t GeoMean
Property name: AUC(0-t) (ng·h/mL)
Answer format: numeric, ng·h/mL implied, no suffix.

So what's the measured AUC(0-t) for this one? `OC[C@H]1NC[C@H](O)[C@@H](O)[C@H]1O`
4050

----------
# Measurement protocol: AT1001-045 study: plasma migalastat bioavailability of 150 mg migalastat HCl capsule with caffeine and sweetener beverages relative to water
# Type: in vivo, human (healthy subjects)
# Test context: both sexes, human, plasma, po, 150 mg, single oral 150 mg migalastat HCl capsule, fasted; with Caffeine + Sucrose drink; read-out: Cmax GeoMean
Property name: Cmax (µg/mL)
// units = µg/mL; emit number, no label

Name the reported Cmax value associated with the molecule `OC[C@H]1NC[C@H](O)[C@@H](O)[C@H]1O`
0.611

----------
# Measurement protocol: AT1001-045 study: plasma migalastat bioavailability of 150 mg migalastat HCl capsule with caffeine and sweetener beverages relative to water
# Assay type: in vivo, human (healthy subjects)
# Test context: both sexes, human, plasma, po, 150 mg, single oral 150 mg migalastat HCl capsule, fasted; with Sucrose drink; read-out: AUC0-t GeoMean
# Text: The example describes the AT1001-045 study, which was an open-label study of the bioavailability, safety and tolerability of migalastat in combination with caffeine and sweeteners. […]
Property name: AUC(0-t) (ng·h/mL)
I only need the number, in ng·h/mL, no unit after it.

Could you share which AUC(0-t) value was measured for `OC[C@H]1NC[C@H](O)[C@@H](O)[C@H]1O` ?
7960

----------
# Measurement protocol: AT1001-045 study: plasma migalastat bioavailability of 150 mg migalastat HCl capsule with caffeine and sweetener beverages relative to water
# Type: in vivo, human (healthy subjects)
# Test context: both sexes, human, plasma, po, 150 mg, single oral 150 mg migalastat HCl capsule, fasted; with Acesulfame K drink; read-out: AUC0-∞ GeoMean
Property name: AUC(0-inf) (ng·h/mL)
Provide the reading as a plain figure in ng·h/mL.

I'd like to know its AUC(0-inf). The compound in question is `OC[C@H]1NC[C@H](O)[C@@H](O)[C@H]1O`
8640

----------
# Measurement protocol: AT1001-045 study: plasma migalastat bioavailability of 150 mg migalastat HCl capsule with caffeine and sweetener beverages relative to water
# Format: in vivo, human (healthy subjects)
# Test context: both sexes, human, plasma, po, 150 mg, single oral 150 mg migalastat HCl capsule, fasted; with Aspartame drink; read-out: t1/2 Mean (converted)
Property name: half-life (min)
Reply numerically in min, unit not repeated.

Which half-life value is on record for `OC[C@H]1NC[C@H](O)[C@@H](O)[C@H]1O` ?
486

----------
# Measurement protocol: AT1001-045 study: plasma migalastat bioavailability of 150 mg migalastat HCl capsule with caffeine and sweetener beverages relative to water
# Type: in vivo, human (healthy subjects)
# Test context: both sexes, human, plasma, po, 150 mg, single oral 150 mg migalastat HCl capsule, fasted, healthy subjects; with water (reference); read-out: Cmax GeoMean
# From the text: The example describes the AT1001-045 study, which was an open-label study of the bioavailability, safety and tolerability of migalastat in combination with caffeine and sweeteners. […]
Property name: Cmax (ng/mL)
// return numeric value only (unit: ng/mL, not printed)

Reported Cmax for `OC[C@H]1NC[C@H](O)[C@@H](O)[C@H]1O` : what is it?
1330

----------
# Measurement protocol: AT1001-045 study: plasma migalastat bioavailability of 150 mg migalastat HCl capsule with caffeine and sweetener beverages relative to water
# Format: in vivo, human (healthy subjects)
# Test context: both sexes, human, plasma, po, 150 mg, single oral 150 mg migalastat HCl capsule, fasted; with Caffeine beverage; read-out: t1/2 Mean (converted)
# From the text: The example describes the AT1001-045 study, which was an open-label study of the bioavailability, safety and tolerability of migalastat in combination with caffeine and sweeteners. […]
Property name: half-life (h)
Give the value, in units of h, as a plain number.

Which half-life is reported for this molecule? OC[C@H]1NC[C@H](O)[C@@H](O)[C@H]1O [migalastat]
10.2
